Tested on: HL-60
experiment description: NCI tumour cell line growth inhibition, 48 h
Calls of active or inactive are those of the source. Rule as the data show it: active = GI50 up to about 1.1 µM and inactive = higher.
endpoint name: GI50

Worked set:
* CC(=O)OCC1OC(N2C(=O)NC(=O)C3C=C4CCCCC4=CC32)C(OC(C)=O)C1OC(C)=O (stereo unspecified) | > 100 µM (inactive)
* COC(=O)c1ccc(C)cc1CC1Cc2c(C)cccc2C1=O (stereo unspecified) | 4.54 µM (inactive)
* CSc1c(C#N)c(N)n(-c2ccc(Cl)cc2)c(=O)c1C#N | 46.3 µM (inactive)

I would be grateful if you could share the reported GI50 for `CC(=O)c1ccc(NC(=O)COC(=O)c2cccc3c(=O)c4ccccc4[nH]c23)cc1` .
> 100 µM (inactive)

Dear colleague, I am looking for the recorded GI50 of the following compound: COC1C(CN[N+](=O)CC2OC3OC(C)(C)OC3C2OC)OC2OC(C)(C)OC21 (stereo unspecified)
> 100 µM (inactive)

Using the record for `CCOC(=O)CCSS(=O)(=O)C(F)(F)F` , report its GI50.
> 100 µM (inactive)

* * *

Overview of reported GI50 across a group of compounds:
Test system: SK-MEL-2
experiment description: NCI tumour cell line growth inhibition, 48 h
Calls of active or inactive are those of the source. Rule as the data show it: active = GI50 up to about 1.1 µM and inactive = higher.

• COC(=O)N/N=C(/CC1(O)C(=O)Nc2ccc([N+](=O)[O-])cc21)c1ccccc1 (stereo unspecified) = 31.2 µM (inactive)
• C/C(=N\Nc1nc2ccccc2[nH]1)c1cccc[n+]1[O-] = > 100 µM (inactive)

Fill in the blank: the reported GI50 of `COc1ccc(/C=N/Nc2nnc3c(n2)c2ccccc2c2nn(-c4ccccc4Cl)nc23)cc1` is ____.
> 100 µM (inactive)

* * *

System: TK-10
experiment description: NCI tumour cell line growth inhibition, 48 h
Activity calls are given as the source filed them. Rule as the data show it: active = GI50 up to about 1.1 µM and inactive = higher. Where a SMILES comes first, the peptide text is derived from it.
endpoint name: GI50

Here's what some known entries look like.
* Cc1ccc2nc(N)[nH]c(=O)c2c1Sc1ccncc1 | > 100 µM (inactive)
* O=C(/C=C/c1ccc(OCc2cccc(Cl)c2)cc1)NO | 20.9 µM (inactive)

# get_value(readout='GI50', item= `CN(C(=O)Cc1ccc(Cl)c(Cl)c1)[C@@H]1CCCC[C@H]1[N+]1(C)CC=CC1` )
> 100 µM (inactive)

Sample CCOC(=O)[C@H]1Nc2ccccc2C2c3ccccc3CC21 (stereo not given in full) — what was its GI50?
> 100 µM (inactive)

Look at this compound and give its reported GI50. CNC(=O)CNC(=O)C(NC(=O)CNC(=O)C1CCCN1C(=O)C(C)NC(=O)C(NC(C)=O)C(C)C)C(C)C (stereo not given) (Ac-VAPGVG-NHMe; configuration not given here)
> 100 µM (inactive)

* * *

Listed here: items and their measured GI50.
System: TK-10
experiment description: NCI tumour cell line growth inhibition, 48 h
Activity calls are given as the source filed them. No stated cut-off is given here; in the data, active = GI50 up to about 1.1 µM and inactive = higher.

Would you please look over these solved cases?
- CN/N=C(\C)c1c(O)cc(C)oc1=O: > 100 µM (inactive)
- Cc1ccc(-c2nc3n(c2/C=N\N=C(N)N)CCS3)cc1: 19 µM (inactive)
- COC(=O)C1=CC2C(=O)OC1C1C(=O)NC(=O)C21 (centres undefined): > 100 µM (inactive)
- CC(=O)c1cc(CC2Cc3cc4c(cc3C2=O)CCC4)cc2c1CCC2 (centres undefined): 38.5 µM (inactive)
- Cc1ccc(/C=C/c2n[nH]c(N/N=C/c3ccc4c(c3)OCO4)nc2=O)cc1: 25.9 µM (inactive)
- Cc1ccc(NC(=O)CC2SC(Nc3ccc(Cl)cc3)=NC2=O)cc1C (centres undefined): 17.3 µM (inactive)

Can you look up the measured GI50 of COC1C(O)=C2C(=O)O/C(C)=C/C=C/C=C/C=C\CC(c3ccccc3)NC(=O)\C=C/C=C\C=C\C=C\[C@@]2(C)[C@@H]1O (some centres undefined) for me?
< 0.0361 µM (active)

Item under review: `CN(C)CCNC(=O)c1cccc2[nH]c(-c3ccccc3)nc12` . Reported GI50?
18.5 µM (inactive)

Record request: GI50 value, item C/C=C(\NC(=O)C(CCCCN)NC(=O)C(C)NC(=O)C1CSC(C)C(NC(=O)C2CSCC(NC(=O)C(C)NC(=O)C(N)C(C)CC)C(=O)NC(CCCCN)C(=O)NC(Cc3ccccc3)C(=O)NC(CC(C)C)C(=O)N2)C(=O)N2CCCC2C(=O)NCC(=O)N1)C(=O)NCC(=O)NC1CSCC2NC(=O)C(Cc3ccc(O)cc3)NC(=O)C(CSC=CNC2=O)NC(=O)C(CC(N)=O)NC(=O)C(Cc2ccccc2)NC1=O (centres undefined)
> 100 µM (inactive)

Bench note: what GI50 did CC(C)=CC[C@H]1C[C@]2(CC=C(C)C)C(=O)[C@@](CC=C(C)C)(C(=O)C(C(=O)c3ccccc3)=C2O)C1(C)C [6-EPI-CLUSIANONE] show?
5.15 µM (inactive)

Given `O=C(CSc1nnc(-c2ccc(/N=C\c3ccc(Cl)cc3)cc2)o1)Nc1ccccc1Cl` , state its recorded GI50.
> 100 µM (inactive)

# input compound: CC(C)(C)N1C(C(=O)c2ccccc2)C1c1ccccc1 (centres undefined) ; wanted: its GI50
> 100 µM (inactive)

Quick check: GI50 of O=C1Nc2ccccc2C1(O)Cc1ccccn1 (centres undefined) ?
> 100 µM (inactive)

Entry `COc1cccc(C=O)c1C(=O)c1cc(O)ccc1O` has what GI50?
29.6 µM (inactive)

* * *

Tested on: DU-145
experiment description: NCI tumour cell line growth inhibition, 48 h
Calls of active or inactive are those of the source. Cut-off read from the data, not from the text of the source: active = GI50 up to about 1.1 µM and inactive = higher.
endpoint name: GI50

• COc1c2cc([N+](=O)[O-])cc1CN(C(=O)C(F)(F)F)CCOCCN(C(=O)C(F)(F)F)C2 = > 100 µM (inactive)
• COc1ccccc1C1(c2c(OC)c(=O)c2=O)SCCCS1 = > 100 µM (inactive)
• COc1ccc(C2C(C#N)=C(S)N(C3OC(CO)C(O)C(O)C3O)C(c3ccccc3)=C2C(C)=O)cc1 (stereo not given) = > 100 µM (inactive)
• COc1ccc(-c2c(/C=N/OCC(=O)O)c3sc4ccccc4n3c2/C=N/OCC(=O)O)cc1 = > 50 µM (inactive)
• CC(C)=CCN1CC(C)C(=O)Nc2ccccc21 (stereo not given) = > 100 µM (inactive)

What value of GI50 has been reported for the following compound? COC(C(O)CO)C(O)C(O)C(=O)NNc1ccccc1 (stereo not given)
> 100 µM (inactive)

Would you mind telling me what GI50 value was observed for `Oc1ccc(-c2cc(-c3c(O)cc(O)cc3O)on2)cc1` ?
53.1 µM (inactive)

If you can, please state the reported GI50 value of `N=c1oc2ccc3ccccc3c2cc1C(N)=O` .
71 µM (inactive)

Request the reported GI50 associated with O=C1CC(C(OCc2ccccc2)C(OCc2ccccc2)C(OCc2ccccc2)C(COCc2ccccc2)OCc2ccccc2)CC(=O)N1 (stereo not given)
> 100 µM (inactive)

Give its GI50 value. Item: CC1(C)C2CCC(=O)C1CC2 (stereo not given)
> 100 µM (inactive)

* * *

Test system: SN12C
experiment description: NCI tumour cell line growth inhibition, 48 h
Calls of active or inactive are those of the source. No stated cut-off is given here; in the data, active = GI50 up to about 1.1 µM and inactive = higher.
Write down the outcome that applies. Available outcomes: T (active), F (inactive)

Worked examples, 5 compounds total:
- O=C1NC(Nc2cccc(Cl)c2)=N/C1=C\c1ccc(Cl)c(Cl)c1: F
- CCOC(=O)c1cccc(NC(=O)CI)c1: T
- Cc1cc(C)nc(NS(=O)(=O)c2ccc(Nc3c4ccccc4nc4c(C(=O)NCCO)cccc34)cc2)n1: F
- CC1C(=O)C(C)C(c2cccs2)N(N=O)C1c1cccs1 (centres undefined): F
- COc1ccc(N[C@H]([C@@H](c2ccccc2)[S+]([O-])c2ccc(C)cc2)C(F)(F)F)cc1 (some centres undefined): F

For this compound, state the assay outcome: `CN(CCNC(=O)c1cn(C)c2c1ccc1ccccc12)CCNC(=O)c1cn(C)c2c1ccc1ccccc12`
F

What did this assay record as the result for `CNC(=O)c1ccc(C(=O)NCCCCCN(O)C(=O)CCC(=O)NCCCCCN(O)C(=O)CCC(=O)NCCCCCN(O)C(C)=O)c(O)c1O` ?
F

I would be grateful if you could indicate the recorded call for CC(C)C(N)=O [ISOBUTYRAMIDE] .
F

Which result was noted for this compound in the test: COc1ccc(C2C(C#N)=C(S)N(C3OC(CO)C(O)C(O)C3O)C(c3ccccc3)=C2C(C)=O)cc1 (centres undefined)
F

* * *

System: SF-539
experiment description: NCI tumour cell line growth inhibition, 48 h
Calls of active or inactive are those of the source. No stated cut-off is given here; in the data, active = GI50 up to about 1.1 µM and inactive = higher.
endpoint name: GI50

Recorded GI50 for COC(=O)CCC(NC(=S)N/N=C/c1ccccn1)C(=O)OC (centres undefined) , please?
> 100 µM (inactive)

So what's the measured GI50 for this one? `Cc1cc(C)c(S(=O)(=O)N(CCCCN)OCCCN)c(C)c1`
21.8 µM (inactive)

Entry COc1cc(NC(C)CCCN)c2ncccc2c1 (centres undefined) [PRIMAQUINE PHOSPHATE] has what GI50?
> 100 µM (inactive)
